# Test name: In vivo pharmacokinetics in mice
# Assay context: mouse, plasma, po; ICR mice, IG, 10 mg/kg
Property: Tmax
Please provide the amount together with its unit, number first.

**Query** Tmax for CC(c1cccnc1N)N1c2nc(OC[C@@H]3CCCN3C)nc3c(F)c(-c4cc(N)cc(Cl)c4C(F)(F)F)nc(c23)OC[C@@H]1C (single isomer, unassigned) ?
**Result** 1 h

* * *

For each entry below, report its Cmax value.
# Test name: In vivo pharmacokinetics in mice
# Assay context: mouse, in vivo, po; ICR mice, IG, 10 mg/kg
Numbers only, in ng/mL.

- Cc1c(F)cc2[nH]ncc2c1-c1nc2c3c(nc(OC[C@@]45CCCN4C[C@H](F)C5)nc3c1F)N(C(C)c1cccnc1N)[C@@H](C)CO2 (single isomer, unassigned): 50.2

**Query** Which Cmax is listed for C#Cc1c(F)ccc2cccc(-c3nc4c5c(nc(OC[C@@H]6CCCN6C)nc5c3F)N(C(C)c3cccnc3N)[C@@H](C)CO4)c12 (single isomer, unassigned) ?
**Result** 49

* * *

Please provide measured pIC50 for the entries that follow.
# Tested on: Capan-1 cells
# Test name: Inhibitory activity for Capan-1 cell proliferation (CCK-8)
# Type: cell-based
# Assay context: Homo sapiens, CAPAN-1, 120 h, 5 days incubation
pIC50: −log10 of the molar value.

Worked cases, answers included:
• C#Cc1c(F)ccc2cc(O)cc(-c3nc4c5c(nc(OC[C@H](C)N(C)C)nc5c3F)N(C(C)c3cccnc3N)[C@@H](C)CO4)c12 (single isomer, unassigned) = > 7.00
• C#Cc1c(F)ccc2cc(O)cc(-c3nc4c5c(nc(OC[C@@H]6C[C@@H](F)CN6C)nc5c3F)N(C(C)c3cccnc3N)[C@@H](C)CO4)c12 (single isomer, unassigned) = > 7.00

**Query** Please report the recorded pIC50 for C#Cc1c(F)ccc2cc(O)cc(-c3nc4c5c(nc(OC[C@@H]6CCCN6C)nc5c3F)N(C(C)c3cccnc3N)[C@@H](C)CO4)c12 (single isomer, unassigned) .
**Result** > 7.00

* * *

# Target or system: His-KRAS G12D (1-169) (Homo sapiens, UniProt P01116, G12D)
# Construct: His-KRAS G12D (1-169)
# Sequence (P01116 1-169 isoform P01116-2 G12D): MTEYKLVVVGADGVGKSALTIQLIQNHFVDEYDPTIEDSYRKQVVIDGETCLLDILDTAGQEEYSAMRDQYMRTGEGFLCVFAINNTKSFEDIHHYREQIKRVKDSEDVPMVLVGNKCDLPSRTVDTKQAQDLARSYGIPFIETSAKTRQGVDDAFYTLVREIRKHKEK
# Test name: Nucleotide exchange assay (SOS1cat-mediated, HTRF)
# Assay context: room temperature, read-out: Nucleotide exchange inhibitory activity IC50
pIC50: −log10 of the molar value.
Property: pIC50

• C#Cc1c(F)ccc2cc(O)cc(-c3nc4c5c(nc(OC[C@@]67CCCN6C[C@H](F)C7)nc5c3F)N(CC(F)(F)F)CCO4)c12 = ≥ 7.00
• C#Cc1c(F)ccc2cc(O)cc(-c3nc4c5c(nc(OC[C@@]67CCCN6C[C@H](F)C7)nc5c3F)N(C[C@@H](C)N(C)C)CCO4)c12 = ≥ 7.00
• C#Cc1c(F)ccc2cc(O)cc(-c3nc4c5c(nc(OCC67CCCN6CC(F)C7)nc5c3F)N(CC(C)N)CCO4)c12 (stereo not drawn) [Example 14] = ≥ 7.00
• C#Cc1c(F)ccc2cc(O)cc(-c3nc4c5c(nc(OCC67CCCN6CC(F)C7)nc5c3F)N(C(C)C)CCO4)c12 (stereo not drawn) = ≥ 7.00
• C#Cc1c(F)ccc2cc(O)cc(-c3nc4c5c(nc(OC[C@@]67CCCN6C[C@H](F)C7)nc5c3F)N(C3CC(N)C3)CCO4)c12 (stereo partly drawn) = ≥ 7.00
• C#Cc1c(F)ccc2cc(O)cc(-c3nc4c5c(nc(OC[C@@]67CCCN6C[C@H](F)C7)nc5c3F)N([C@H]3C[C@@H]3N)CCO4)c12 = ≥ 7.00
• C#Cc1c(F)ccc2cc(O)cc(-c3nc4c5c(nc(OCC67CCCN6CC(F)C7)nc5c3F)N(C3CCC(O)C3)CCO4)c12 (stereo not drawn) = ≥ 7.00
• C#Cc1c(F)ccc2cc(O)cc(-c3nc4c5c(nc(OCC67CCCN6CC(F)C7)nc5c3F)N(C)CCO4)c12 (stereo not drawn) = ≥ 7.00
• C#Cc1c(F)ccc2cc(O)cc(-c3nc4c5c(nc(OCC67CCCN6CC(F)C7)nc5c3F)N(CC3(N(C)C)CC3)CCO4)c12 (stereo not drawn) = ≥ 7.00
• C#Cc1c(F)ccc2cc(O)cc(-c3nc4c5c(nc(OC[C@@]67CCCN6C[C@H](F)C7)nc5c3F)N(C[C@H](C)N(C)C)CCO4)c12 = ≥ 7.00

// for each compound in input: emit pIC50
1. C#Cc1c(F)ccc2cc(O)cc(-c3nc4c5c(nc(OCC67CCCN6CC(F)C7)nc5c3F)N(C3CCC(N)C3)CCO4)c12 (stereo not drawn)
2. C#Cc1c(F)ccc2cc(O)cc(-c3nc4c5c(nc(OCC67CCCN6CC(F)C7)nc5c3F)N(CC(C)N)CCO4)c12 (stereo not drawn) [Example 13]

**Result**
1. 6.00 to 6.30
2. ≥ 7.00

Batch request: pIC50 per item, same order as input.
1. C#Cc1c(F)ccc2cc(O)cc(-c3nc4c5c(nc(OC[C@@]67CCCN6C[C@H](F)C7)nc5c3F)N(C3CCCC3)CCO4)c12
2. C#Cc1c(F)ccc2cc(O)cc(-c3nc4c5c(nc(OC[C@@]67CCCN6C[C@H](F)C7)nc5c3F)N(C3CC(N(C)C)C3)CCO4)c12 (stereo partly drawn)
3. C#Cc1c(F)ccc2cc(O)cc(-c3nc4c5c(nc(OC[C@@]67CCCN6C[C@H](F)C7)nc5c3F)NCCO4)c12
4. C#Cc1c(F)ccc2cc(O)cc(-c3nc4c5c(nc(OCC67CCCN6CC(F)C7)nc5c3F)N(CCN(C)C)CCO4)c12 (stereo not drawn)
5. C#Cc1c(F)ccc2cc(O)cc(-c3nc4c5c(nc(OCC67CCCN6CC(F)C7)nc5c3F)N(C3CCC(N(C)C)C3)CCO4)c12 (stereo not drawn)
6. C#Cc1c(F)ccc2cc(O)cc(-c3nc4c5c(nc(OC[C@@]67CCCN6C[C@H](F)C7)nc5c3F)N(CC3CC3)CCO4)c12

**Result**
≥ 7.00
6.30 to 7.00
≥ 7.00
≥ 7.00
6.30 to 7.00
≥ 7.00
